molecular target: his-galectin-3 (Homo sapiens, UniProt P17931); construct: purchased Abcam; assay: TR-FRET assay (in vitro galectin-3 binding inhibitory activity test); settings: Table 1; compound at 20 μM; 60 nM his-galectin-3, 15 nM biotin-ASF; read-out: % Inhibitory activity (at 20 μM)
Sequence (P17931 whole entry): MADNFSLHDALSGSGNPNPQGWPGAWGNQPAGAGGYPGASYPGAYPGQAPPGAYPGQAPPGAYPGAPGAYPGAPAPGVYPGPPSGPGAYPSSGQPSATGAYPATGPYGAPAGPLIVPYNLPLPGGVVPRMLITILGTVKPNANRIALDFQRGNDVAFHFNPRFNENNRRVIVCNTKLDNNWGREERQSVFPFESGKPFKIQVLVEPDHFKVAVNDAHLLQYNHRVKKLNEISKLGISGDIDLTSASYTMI
readout.label: inhibition at 20 µM

Example entries and their recorded answers appear below.
OC[C@H]1O[C@@]2(CCCO2)[C@H](O)[C@@H](n2cc(-c3cc(F)c(F)c(F)c3)nn2)[C@H]1O
25 to 50%
O=C(N[C@@H]1CCO[C@]12O[C@H](CO)[C@H](O)[C@H](n1cc(-c3cc(F)c(F)c(F)c3)nn1)[C@H]2O)c1ccc2ccccc2c1
50 to 75%

**Q:** Supply reported inhibition at 20 µM belonging to this compound: "O=C(O[C@@H]1[C@@H](n2cc(-c3cc(F)c(F)c(F)c3)nn2)[C@@H](O)[C@@H](CO)O[C@@]12CCCO2)c1cccc(F)c1"
**A:** 50 to 75%

Hey, just so you know, these numbers are from patent US20250026778A1.
